# tgt: human P2X3 receptor (Homo sapiens (Human), UniProt P56373)
# Sequence (P56373 whole entry): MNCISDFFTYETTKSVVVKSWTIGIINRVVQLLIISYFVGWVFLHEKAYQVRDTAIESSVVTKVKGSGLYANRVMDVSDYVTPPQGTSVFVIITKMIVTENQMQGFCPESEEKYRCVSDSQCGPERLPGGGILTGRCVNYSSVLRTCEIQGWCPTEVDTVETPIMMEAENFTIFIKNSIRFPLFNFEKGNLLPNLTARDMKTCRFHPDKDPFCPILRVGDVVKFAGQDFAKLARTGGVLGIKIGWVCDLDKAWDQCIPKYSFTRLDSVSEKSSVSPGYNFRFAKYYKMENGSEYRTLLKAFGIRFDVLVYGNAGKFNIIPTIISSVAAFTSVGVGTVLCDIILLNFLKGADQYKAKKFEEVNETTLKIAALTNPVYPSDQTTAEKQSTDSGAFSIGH
# protocolText: P2X3 receptor inhibition, ATP-evoked Fluo-3 fluorescence (FDSS 3000)
# experimentalContext: C6BU-1 cell transfected with human P2X3 receptor gene
pIC50: −log10 of the molar value.
attributeMeasured: pIC50

molecularstring=COC(=O)C(C)(C)Cn1c(=O)[nH]/c(=N\c2ccc3oc(C)cc3c2)n(Cc2ccc(Cl)cc2)c1=O measvalue=8.00
molecularstring=COC(=O)C[C@@H](C)n1c(=O)[nH]/c(=N\c2ccc(OC(C)C)c(F)c2)n(Cc2ccc(Cl)cc2)c1=O measvalue=8.15
molecularstring=Cc1ccc(Cn2c(=O)n(CC(C)(C)C(=O)O)c(=O)[nH]/c2=N\c2ccc(OC(C)C)c(Cl)c2)cc1 measvalue=8.00
molecularstring=CCn1ccc2cc(/N=c3\[nH]c(=O)n(CC(C)(C)C(=O)OC)c(=O)n3Cc3ccc(Cl)cc3)ccc21 measvalue=6.99

###

Recorded IC50 values for a group of molecules are listed next.
# tgt: human P2X3 receptor (Homo sapiens (Human), UniProt P56373)
# protocolText: P2X3 receptor inhibition, ATP-evoked Fluo-3 fluorescence (FDSS 3000)
# experimentalContext: C6BU-1 cell transfected with human P2X3 receptor gene
attributeMeasured: IC50

molecularstring=O=c1nc(Nc2ccc(Cl)c(Cl)c2)n(Cc2ccc(Cl)cc2)c(=O)n1CCO measvalue="185 nM"
molecularstring=O=c1nc(Nc2ccc(OC(F)(F)F)cc2)n(Cc2ccc(Cl)cc2)c(=O)n1CCO measvalue="532 nM"
molecularstring=Cc1ccc(Cn2c(=O)n(CCCC(=O)O)c(=O)[nH]/c2=N\c2ccc(OC(C)C)c(Cl)c2)cc1 measvalue="12 nM"
molecularstring=CCCCn1c(=O)nc(Nc2cccc(C(F)(F)F)c2)n(Cc2ccc(C)cc2)c1=O measvalue="595 nM"
molecularstring=CCOc1ccc(/N=c2\[nH]c(=O)n(C[C@@H](C)C(=O)O)c(=O)n2Cc2ccc(Cl)cc2)cc1C measvalue="198 nM"
molecularstring=COC(=O)[C@H](C)Cn1c(=O)[nH]/c(=N\c2ccc(OC(C)C)c(Cl)c2)n(Cc2ccc(Cl)cc2)c1=O measvalue="3 nM"
molecularstring=Cc1cc(/N=c2\[nH]c(=O)[nH]c(=O)n2Cc2ccc(Cl)cc2)ccc1OC(C)C measvalue="137 nM"
molecularstring=CC(C)Oc1ccc(/N=c2\[nH]c(=O)n(C[C@H](C)C(=O)O)c(=O)n2Cc2ccc(Cl)cc2)cc1 measvalue="19 nM"
molecularstring=O=c1nc(Nc2ccc(OC(F)F)cc2)n(Cc2ccc(Cl)cc2)c(=O)n1CCO measvalue="266 nM"
molecularstring=COC(=O)C(C)(C)Cn1c(=O)[nH]/c(=N\c2cccc(OC(F)F)c2)n(Cc2ccc(Cl)cc2)c1=O measvalue="207 nM"
molecularstring=COC(=O)C(C)(C)Cn1c(=O)[nH]/c(=N\c2ccc3oc(C)nc3c2)n(Cc2ccc(Cl)cc2)c1=O measvalue="124 nM"
molecularstring=COC(=O)Cn1c(=O)nc(Nc2ccc(OC(C)C)c(F)c2)n(Cc2ccc(Cl)cc2)c1=O measvalue="53 nM"
molecularstring=CCOc1ccc(/N=c2\[nH]c(=O)n(C[C@H](C)C(=O)O)c(=O)n2Cc2ccc(Cl)cc2)cc1Cl measvalue="7 nM"
molecularstring=CC(C)Oc1ccc(Nc2nc(=O)n(C(C)C)c(=O)n2Cc2ccc(F)cc2)cc1Cl measvalue="110 nM"
molecularstring=CCNC(=O)NCCn1c(=O)nc(Nc2ccc(OC(C)C)c(F)c2)n(Cc2ccc(Cl)cc2)c1=O measvalue="64 nM"
molecularstring=CC(C)(Cn1c(=O)[nH]/c(=N\c2ccc(O)c(Cl)c2)n(Cc2ccc(Cl)cc2)c1=O)C(=O)O measvalue="779 nM"

###

# tgt: human P2X3 receptor (Homo sapiens (Human))
# protocolText: P2X3 receptor inhibition, ATP-evoked Fluo-3 fluorescence (FDSS 3000)
# experimentalContext: C6BU-1 cell transfected with human P2X3 receptor gene
Lab note: anything with IC50 below 80 nM is marked t; values at 80 nM or higher are marked f.

compound=CC(C)(Cn1c(=O)[nH]/c(=N\c2ccc3[nH]ccc3c2)n(Cc2ccc(Cl)cc2)c1=O)C(=O)O tgt="human P2X3 receptor (Homo sapiens (Human))" label=f
compound=CC(C)Oc1ccc(/N=c2\[nH]c(=O)n([C@@H](C)CC(=O)O)c(=O)n2Cc2ccc(Cl)cc2)cc1F tgt="human P2X3 receptor (Homo sapiens (Human))" label=t
compound=Cc1ccc(Cn2c(=O)n(C[C@H](C)C(=O)O)c(=O)[nH]/c2=N\c2ccc(OC(C)C)c(F)c2)cc1 tgt="human P2X3 receptor (Homo sapiens (Human))" label=t
compound=CC(C)Oc1ccc(Nc2nc(=O)n(CC(N)=O)c(=O)n2Cc2ccc(Cl)cc2)cc1F tgt="human P2X3 receptor (Homo sapiens (Human))" label=t
compound=CSc1ccc(/N=c2\[nH]c(=O)n(CC(C)(C)C(=O)O)c(=O)n2Cc2ccc(Cl)cc2)cc1 tgt="human P2X3 receptor (Homo sapiens (Human))" label=f
compound=CC(C)Oc1ccc(/N=c2\[nH]c(=O)n(C[C@H](C)C(=O)O)c(=O)n2Cc2ccc(Cl)cc2)cc1F tgt="human P2X3 receptor (Homo sapiens (Human))" label=t
compound=O=c1nc(Nc2ccc(C(F)(F)F)c(F)c2)n(Cc2ccc(Cl)cc2)c(=O)n1CCO tgt="human P2X3 receptor (Homo sapiens (Human))" label=f
compound=CC(C)Oc1ccc(Nc2nc(=O)n(C(C)C)c(=O)n2Cc2ccc(F)cc2)cc1C#N tgt="human P2X3 receptor (Homo sapiens (Human))" label=f
compound=O=c1nc(Nc2ccc(OC3CCCC3)cc2)n(Cc2ccc(Cl)cc2)c(=O)n1CCO tgt="human P2X3 receptor (Homo sapiens (Human))" label=f
compound=CCOc1ccc(Nc2nc(=O)n(CCCO)c(=O)n2Cc2ccc(Cl)cc2)cc1 tgt="human P2X3 receptor (Homo sapiens (Human))" label=t
compound="CCC[S+]([O-])c1ccc(Nc2nc(=O)n(CCO)c(=O)n2Cc2ccc(Cl)cc2)cc1 (centres unmarked)" tgt="human P2X3 receptor (Homo sapiens (Human))" label=f
compound=Cc1cc2cc(/N=c3\[nH]c(=O)n(C[C@H](C)C(=O)O)c(=O)n3Cc3ccc(Cl)cc3)ccc2o1 tgt="human P2X3 receptor (Homo sapiens (Human))" label=t
compound=CC(C)Oc1ccc(Nc2nc(=O)n(CCC(=O)N(C)C)c(=O)n2Cc2ccc(Cl)cc2)cc1F tgt="human P2X3 receptor (Homo sapiens (Human))" label=t
compound=O=c1nc(Nc2cccc(C(F)(F)F)c2)n(Cc2ccc(Cl)cc2)c(=O)n1CC(CO)CO tgt="human P2X3 receptor (Homo sapiens (Human))" label=t
compound=CC(C)Oc1ccc(Nc2nc(=O)n(C(C)C)c(=O)n2Cc2ccc(F)cc2)cc1 tgt="human P2X3 receptor (Homo sapiens (Human))" label=f
compound=Cc1ccc(Cn2c(=O)n(C[C@H](C)C(=O)O)c(=O)[nH]/c2=N\c2ccc(OC(C)C)c(Cl)c2)cc1 tgt="human P2X3 receptor (Homo sapiens (Human))" label=t
compound=CC(C)Oc1ccc(Nc2nc(=O)n(CCO)c(=O)[nH]2)cc1F tgt="human P2X3 receptor (Homo sapiens (Human))" label=f
compound=Cc1ccc(Cn2c(=O)n(CC(=O)N[C@H](C)C(=O)O)c(=O)[nH]/c2=N\c2ccc(OC(C)C)c(F)c2)cc1 tgt="human P2X3 receptor (Homo sapiens (Human))" label=t
compound=COC(=O)C(C)(C)Cn1c(=O)[nH]/c(=N\c2ccc(O)c(Cl)c2)n(Cc2ccc(Cl)cc2)c1=O tgt="human P2X3 receptor (Homo sapiens (Human))" label=f
compound="CC(C)Oc1ccc(/N=c2\\[nH]c(=O)n(C(C)C(=O)O)c(=O)n2Cc2ccc(Cl)cc2)cc1F (centres unmarked)" tgt="human P2X3 receptor (Homo sapiens (Human))" label=f
compound=COC(=O)c1cccc(Cn2c(=O)[nH]/c(=N\c3ccc(OC(C)C)c(F)c3)n(Cc3ccc(Cl)cc3)c2=O)c1 tgt="human P2X3 receptor (Homo sapiens (Human))" label=t
compound=CC(C)Oc1ccc(Nc2nc(OCC(CO)CO)nc(=O)n2Cc2ccc(Cl)cc2)cc1F tgt="human P2X3 receptor (Homo sapiens (Human))" label=f
compound=CC(C)Oc1ccc(Nc2nc(=O)n(CCO)c(=O)n2Cc2ccc(F)cc2F)cc1F tgt="human P2X3 receptor (Homo sapiens (Human))" label=f
compound=COC(=O)[C@@H](C)Cn1c(=O)[nH]/c(=N\c2ccc(OC(C)C)c(Cl)c2)n(Cc2ccc(Cl)cc2)c1=O tgt="human P2X3 receptor (Homo sapiens (Human))" label=t
compound=CC(C)Oc1ccc(/N=c2\[nH]c(=O)n([C@H](C)CC(=O)O)c(=O)n2Cc2ccc(Cl)cc2)cc1F tgt="human P2X3 receptor (Homo sapiens (Human))" label=t
compound=CNC(=O)Cn1c(=O)[nH]/c(=N\c2ccc(OC(C)C)c(Cl)c2)n(Cc2ccc(Cl)cc2)c1=O tgt="human P2X3 receptor (Homo sapiens (Human))" label=t
compound=CC(C)Oc1ccc(Nc2nc(=O)n(CCO)c(=O)n2Cc2ccc(Cl)cc2)cc1Cl tgt="human P2X3 receptor (Homo sapiens (Human))" label=t
compound=CC(C)Oc1ccc(Nc2nc(=O)n(CCN3CCOCC3)c(=O)n2Cc2ccc(Cl)cc2)cc1F tgt="human P2X3 receptor (Homo sapiens (Human))" label=t
compound=CCOC(=O)CCn1c(=O)nc(Nc2ccc(OC(C)C)c(Cl)c2)n(CC2CCCCC2)c1=O tgt="human P2X3 receptor (Homo sapiens (Human))" label=t
compound=Cc1ccc(Cn2c(=O)n(CC(=O)N[C@@H](C)C(=O)O)c(=O)[nH]/c2=N\c2ccc(OC(C)C)c(F)c2)cc1 tgt="human P2X3 receptor (Homo sapiens (Human))" label=f
compound=O=c1nc(Nc2ccc(-c3ccon3)cc2)n(Cc2ccc(Cl)cc2)c(=O)n1CCN1CCOCC1 tgt="human P2X3 receptor (Homo sapiens (Human))" label=f
